Values compiled from ChEMBL document CHEMBL1149279.

System: Adenosine receptor A2a (Homo sapiens)
Sequence (P29274 whole entry): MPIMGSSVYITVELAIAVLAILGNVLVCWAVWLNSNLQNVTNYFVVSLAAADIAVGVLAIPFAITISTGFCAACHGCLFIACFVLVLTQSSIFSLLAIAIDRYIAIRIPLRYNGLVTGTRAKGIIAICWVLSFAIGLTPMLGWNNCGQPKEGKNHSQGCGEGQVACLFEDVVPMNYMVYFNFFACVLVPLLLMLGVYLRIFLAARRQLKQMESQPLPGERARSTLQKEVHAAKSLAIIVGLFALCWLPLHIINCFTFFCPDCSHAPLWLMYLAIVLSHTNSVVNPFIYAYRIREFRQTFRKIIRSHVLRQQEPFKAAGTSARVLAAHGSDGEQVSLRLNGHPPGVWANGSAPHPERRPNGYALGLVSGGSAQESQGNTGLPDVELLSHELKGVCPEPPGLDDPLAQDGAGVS
Protocol: Displacement of [3H]ZM-241385 from human adenosine A2A receptor expressed in HEK293 cells
Type: cell-based
Endpoint: Ki

Requested read-out: Ki. Entry: `CC(=O)Nc1cc(-c2ccccc2)nc(-c2ccccc2)n1`
489 nM (antagonist)

Consider the compound shown here: `CCC(CC)C(=O)Nc1cc(-c2ccccc2)nc(-c2ccccc2)n1` What is its recorded Ki?
381 nM (antagonist)

Recorded Ki of `CC(C)CC(=O)Nc1cc(-c2ccccc2)nc(-c2ccccc2)n1` , please.
157 nM (antagonist)

Sample CCC(C)C(=O)Nc1cc(-c2ccccc2)nc(-c2ccccc2)n1 (stereo unspecified) — what was its Ki?
899 nM (antagonist)

Value lookup for Ki; key = `CCC(=O)Nc1cc(-c2ccccc2)nc(-c2ccccc2)n1`
81.9 nM (antagonist)

Requested field: Ki. Item: `CCC(=O)Nc1nc(-c2ccccc2)cc(-c2ccccc2)n1`
893 nM (antagonist)
